The following compounds are listed with their measured %Inh values.
system: CAMK2A; details: concentration: 1 μM, replicates: in singlicate; n = 1;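 also: KINOMEscan kinase panel screen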
The reply should contain only the number, in %.

Clc1ccc(-c2cc(-c3c[nH]nc3-c3ccccn3)ccn2)cc1 [GW681251]    0

Reported %Inh, compound c1ccc(-c2ccc3c(-c4ccnc(Nc5ccc6c(c5)OCCO6)n4)cnn3n2)cc1 [GW818941] : ____
0

Reported %Inh, compound Cc1ccc(C)c(NC(=O)NCCNc2ccnc(Nc3ccc(F)cc3)n2)c1 [GSK1379878] : ____
0

Reported %Inh, compound Cl.O=S(=O)(c1cccc(F)c1)c1ccc(Nc2ncnc3cc(Br)sc23)cc1Cl [GSK306886] : ____
0

Reported %Inh, compound COc1ccc(-c2oc3ncnc(N)c3c2-c2ccc(OC)cc2)cc1 [SB-589132] : ____
0

Reported %Inh, compound NC(=O)c1sc(-n2cnc3ccccc32)cc1OCc1ccccc1F [GSK1024306] : ____
0

Reported %Inh, compound Fc1ccc(Nc2nccc(-c3c(-c4ccc(Cl)cc4)nn4ncccc34)n2)cc1F [GW829058] : ____
16
